molecular target: 11β-HSD1 Reductase (Rattus norvegicus); experiment: 11β-HSD1 reductase assay in rat Leydig cell homogenates;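 further: rat Leydig cell homogenate incubated 20 min at 37 °C, pH 7.4, with tritiated 11-dehydro-corticosterone and 3 mM NADPH, product measured by HPLC, inhibition from triplicate dose–response curves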
Sequence (P16232 whole entry): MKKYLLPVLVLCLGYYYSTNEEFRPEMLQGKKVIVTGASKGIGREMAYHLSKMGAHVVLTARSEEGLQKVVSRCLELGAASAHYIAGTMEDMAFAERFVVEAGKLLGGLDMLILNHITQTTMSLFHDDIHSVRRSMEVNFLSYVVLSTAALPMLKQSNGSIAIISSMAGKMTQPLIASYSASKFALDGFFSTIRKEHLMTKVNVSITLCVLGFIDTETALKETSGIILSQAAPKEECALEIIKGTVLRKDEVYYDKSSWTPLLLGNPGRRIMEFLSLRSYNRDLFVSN
Listing of entries alongside the reported IC50.
READOUT: IC50

>>> assay_result("C[C@]12CC[C@@H](O)C[C@H]1CC[C@@H]1[C@H]2C(=O)C[C@]2(C)C(=O)CC[C@@H]12")
"> 100 µM"
>>> assay_result("C[C@]12CCC(=O)C=C1CC[C@@H]1[C@@H]2[C@@H](O)C[C@]2(C)C(=O)CC[C@@H]12")
"> 100 µM"
>>> assay_result("C[C@]12CC[C@@H](O)C[C@@H]1CC[C@@H]1[C@@H]2[C@@H](O)C[C@@]2(C)[C@H]1CC[C@]2(O)C(=O)CO")
"> 100 µM"
>>> assay_result("C[C@]12CC[C@@H](O)C[C@H]1CC[C@@H]1[C@@H]2[C@@H](O)C[C@@]2(C)[C@H]1CC[C@]2(O)C(=O)CO")
"> 100 µM"

----------
target: 11β-HSD1 Dehydrogenase (Rattus norvegicus, UniProt P16232); test: 11β-HSD1 dehydrogenase assay in rat Leydig cell homogenates; assay type: biochemical; design: Freshly prepared rat Leydig cell homogenates were chosen since they provide a rich and reliable source of both 11β-HSD1 dehydrogenase and reductase; from tissue; host or cells: rat testicular Leydig cells, homogenate;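 further: tritiated corticosterone conversion by 11β-HSD1 dehydrogenase in Leydig homogenates with 3 mM NADP at pH 8.4, 37 °C for 10 min, products resolved by HPLC, inhibition relative to uninhibited enzyme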
Sequence (P16232 whole entry): as above
READOUT: IC50

>>> assay_result("C[C@]12CC[C@@H](O)C[C@@H]1CC[C@@H]1[C@@H]2[C@@H](O)C[C@]2(C)C(=O)CC[C@@H]12")
"> 100 µM"
>>> assay_result("C[C@]12CCC(=O)C=C1CC[C@@H]1[C@H]2C(=O)C[C@]2(C)C(=O)CC[C@H]12 (stereo in doubt)")
"> 100 µM"
>>> assay_result("C[C@]12CC[C@@H](O)C[C@H]1CC[C@@H]1[C@H]2C(=O)C[C@]2(C)C(=O)CC[C@@H]12")
"> 100 µM"
